# Tested on: HIV-1 RT mutant M230L
# method: single round infection assay, M230L
# Format: cell-based
# condition.description: M230L; ± SD, n=4; limit of detection 100 nM
Each entry below carries its recorded IC50.
measured.metric: IC50 (nM)

>  <query.smiles>
Cc1cc(/C=C/C#N)cc(C)c1Nc1nc(Nc2ccc3scnc3c2)c2nc[nH]c2n1

>  <measured.metric>
IC50

>  <quantitative.readout>
6.1

$$$$
>  <query.smiles>
Cc1cc(/C=C/C#N)cc(C)c1Nc1nc(Nc2ccc(C#N)cc2)ncc1N

>  <measured.metric>
IC50

>  <quantitative.readout>
4

$$$$
>  <query.smiles>
Cc1cc(/C=C/C#N)cc(C)c1-n1cnc2cnc(Nc3ccc(C#N)cc3)nc21

>  <measured.metric>
IC50

>  <quantitative.readout>
4.2

$$$$

----------
# Test system: HIV-1 RT mutant V106A/F227L
# method: single round infection assay, V106A/F227L
# Type: cell-based
# condition.description: V106A/F227L vs WT
Each entry below carries its recorded fold-change of IC50 of the mutant relative to WT.
measured.metric: fold-change of IC50 of the mutant relative to WT

>  <query.smiles>
Cc1cc(/C=C/C#N)cc(C)c1Nc1nc(Nc2ccc3scnc3c2)c2nc[nH]c2n1

>  <measurement.qualifier>
=

>  <quantitative.readout>
27

$$$$
>  <query.smiles>
Cc1cc(/C=C/C#N)cc(C)c1Nc1ccnc(Nc2ccc(C#N)cc2)n1

>  <measurement.qualifier>
=

>  <quantitative.readout>
3

$$$$
>  <query.smiles>
Cc1cc(/C=C/C#N)cc(C)c1Nc1nc(Nc2ccc(C#N)cc2)ncc1N

>  <measurement.qualifier>
<

>  <quantitative.readout>
2

$$$$
>  <query.smiles>
Cc1cc(/C=C/C#N)cc(C)c1Nc1ncc(N)c(Nc2ccc(C#N)cc2)n1

>  <measurement.qualifier>
=

>  <quantitative.readout>
17

$$$$
>  <query.smiles>
Cc1cc(/C=C/C#N)cc(C)c1Nc1nc(Nc2ccc(C#N)cc2)c2nc[nH]c2n1

>  <measurement.qualifier>
<

>  <quantitative.readout>
2

$$$$
>  <query.smiles>
COc1ccc(Nc2nc(Nc3c(C)cc(/C=C/C#N)cc3C)nc3[nH]cnc23)cc1

>  <measurement.qualifier>
=

>  <quantitative.readout>
4

$$$$

----------
# Tested on: HIV-1 RT mutant K101E
# method: single round infection assay, K101E
# Type: cell-based
# condition.description: K101E; ± SD, n=4
pIC50: −log10 of the molar value.

>  <query.smiles>
Cc1cc(/C=C/C#N)cc(C)c1Nc1ccnc(Nc2ccc(C#N)cc2)n1

>  <pIC50>
8.59

$$$$
>  <query.smiles>
Cc1cc(/C=C/C#N)cc(C)c1Nc1nc(Nc2ccc(C(F)(F)F)cc2)c2nc[nH]c2n1

>  <pIC50>
8.21

$$$$
>  <query.smiles>
CC(=O)c1ccc(Nc2nc(Nc3c(C)cc(/C=C/C#N)cc3C)nc3[nH]cnc23)cc1

>  <pIC50>
8.77

$$$$
>  <query.smiles>
Cc1cc(/C=C/C#N)cc(C)c1Nc1ncc(N)c(Nc2ccc(C#N)cc2)n1

>  <pIC50>
8.39

$$$$
>  <query.smiles>
Cc1cc(/C=C/C#N)cc(C)c1Nc1nc(Nc2ccc(C#N)cc2)ncc1[N+](=O)[O-]

>  <pIC50>
8.59

$$$$
>  <query.smiles>
Cc1cc(/C=C/C#N)cc(C)c1Nc1nc(Nc2ccc(C#N)cc2)ncc1N

>  <pIC50>
8.64

$$$$

----------
# System: HIV-1 RT mutant E138K
# method: single round infection assay, E138K
# Format: cell-based
# condition.description: E138K; ± SD, n=4
Assign classes using reported IC50 values and the ranges low-valued = under 2 nM, mid-valued = from 2 nM up to 3 nM, high-valued = 3 nM and over, please.

>  <query.smiles>
CC(=O)c1ccc(Nc2nc(Nc3c(C)cc(/C=C/C#N)cc3C)nc3[nH]cnc23)cc1

>  <label>
mid-valued

$$$$
>  <query.smiles>
Cc1cc(/C=C/C#N)cc(C)c1Nc1nc(Nc2ccc(C#N)cc2)ncc1N

>  <label>
low-valued

$$$$
>  <query.smiles>
Cc1cc(/C=C/C#N)cc(C)c1-n1cnc2cnc(Nc3ccc(C#N)cc3)nc21

>  <label>
low-valued

$$$$
>  <query.smiles>
Cc1cc(/C=C/C#N)cc(C)c1Nc1nc(Nc2ccc(C#N)cc2)ncc1[N+](=O)[O-]

>  <label>
low-valued

$$$$
>  <query.smiles>
Cc1cc(/C=C/C#N)cc(C)c1Nc1ncc([N+](=O)[O-])c(Nc2ccc(C#N)cc2)n1

>  <label>
high-valued

$$$$
>  <query.smiles>
Cc1cc(/C=C/C#N)cc(C)c1Nc1ncc(N)c(Nc2ccc(C#N)cc2)n1

>  <label>
high-valued

$$$$
>  <query.smiles>
Cc1cc(/C=C/C#N)cc(C)c1Nc1nc(Nc2ccc(C(F)(F)F)cc2)c2nc[nH]c2n1

>  <label>
high-valued

$$$$
>  <query.smiles>
Cc1cc(/C=C/C#N)cc(C)c1Nc1nc(Nc2ccc3scnc3c2)c2nc[nH]c2n1

>  <label>
mid-valued

$$$$
>  <query.smiles>
COc1ccc(Nc2nc(Nc3c(C)cc(/C=C/C#N)cc3C)nc3[nH]cnc23)cc1

>  <label>
low-valued

$$$$

----------
# System: HIV-1 RT mutant E138K/M184V
# method: single round infection assay, E138K/M184V
# Assay type: cell-based
# condition.description: E138K/M184V vs WT
# Protocol: The human osteosarcoma cell line, HOS, was obtained from Dr. Richard Schwartz (Michigan State University, East Lansing, MI) and grown in Dulbecco’s modified Eagle’s medium (Invitrogen, Carlsbad, CA) supplemented with 5 % (v/v) fetal bovine serum, 5 % newborn calf serum, and penicillin (50 units/ml) plus streptomycin (50 µg/ml; Quality Biological, Gaithersburg, MD). […]
Each entry below carries its recorded fold-change of IC50 of the mutant relative to WT.
measured.metric: fold-change of IC50 of the mutant relative to WT

>  <compound>
COc1ccc(Nc2nc(Nc3c(C)cc(/C=C/C#N)cc3C)nc3[nH]cnc23)cc1 [compound 16]

>  <target.under.test>
HIV-1 RT mutant E138K/M184V

>  <result>
10

$$$$
>  <compound>
CC(=O)c1ccc(Nc2nc(Nc3c(C)cc(/C=C/C#N)cc3C)nc3[nH]cnc23)cc1 [compound 14]

>  <target.under.test>
HIV-1 RT mutant E138K/M184V

>  <result>
2

$$$$
>  <compound>
Cc1cc(/C=C/C#N)cc(C)c1Nc1nc(Nc2ccc(C#N)cc2)ncc1N [compound 7]

>  <target.under.test>
HIV-1 RT mutant E138K/M184V

>  <result>
3

$$$$
>  <compound>
Cc1cc(/C=C/C#N)cc(C)c1Nc1ccnc(Nc2ccc(C#N)cc2)n1 [RPV, rilpivirine]

>  <target.under.test>
HIV-1 RT mutant E138K/M184V

>  <result>
5

$$$$
>  <compound>
Cc1cc(/C=C/C#N)cc(C)c1-n1cnc2cnc(Nc3ccc(C#N)cc3)nc21 [compound 27]

>  <target.under.test>
HIV-1 RT mutant E138K/M184V

>  <result>
3

$$$$
>  <compound>
COc1ccc(Cn2cnc3c(Nc4ccc(C#N)cc4)nc(Nc4c(C)cc(/C=C/C#N)cc4C)nc32)cc1 [compound 12]

>  <target.under.test>
HIV-1 RT mutant E138K/M184V

>  <result>
7

$$$$
>  <compound>
Cc1cc(/C=C/C#N)cc(C)c1Nc1nc(Nc2ccc(C#N)cc2)ncc1[N+](=O)[O-] [compound 6]

>  <target.under.test>
HIV-1 RT mutant E138K/M184V

>  <result>
3

$$$$
>  <compound>
Cc1cc(/C=C/C#N)cc(C)c1Nc1ncc2ncn(-c3ccc(C#N)cc3)c2n1 [compound 26]

>  <target.under.test>
HIV-1 RT mutant E138K/M184V

>  <result>
< 2

$$$$
>  <compound>
Cc1cc(/C=C/C#N)cc(C)c1Nc1nc(Nc2ccc(C#N)cc2)c2nc[nH]c2n1 [compound 13]

>  <target.under.test>
HIV-1 RT mutant E138K/M184V

>  <result>
4

$$$$
>  <compound>
Cc1cc(/C=C/C#N)cc(C)c1Nc1nc(Nc2ccc(F)cc2)c2nc[nH]c2n1 [compound 17]

>  <target.under.test>
HIV-1 RT mutant E138K/M184V

>  <result>
< 2

$$$$
>  <compound>
Cc1cc(/C=C/C#N)cc(C)c1Nc1nc(Nc2ccc3scnc3c2)c2nc[nH]c2n1 [compound 21]

>  <target.under.test>
HIV-1 RT mutant E138K/M184V

>  <result>
6

$$$$
>  <compound>
Cc1cc(/C=C/C#N)cc(C)c1Nc1ncc(N)c(Nc2ccc(C#N)cc2)n1 [compound 9]

>  <target.under.test>
HIV-1 RT mutant E138K/M184V

>  <result>
4

$$$$
>  <compound>
Cc1cc(/C=C/C#N)cc(C)c1Nc1ncc([N+](=O)[O-])c(Nc2ccc(C#N)cc2)n1 [compound 8]

>  <target.under.test>
HIV-1 RT mutant E138K/M184V

>  <result>
< 2

$$$$
>  <compound>
Cc1cc(/C=C/C#N)cc(C)c1Nc1nc(Nc2ccc(C(F)(F)F)cc2)c2nc[nH]c2n1 [compound 15]

>  <target.under.test>
HIV-1 RT mutant E138K/M184V

>  <result>
< 2

$$$$

Entry source: paper PMC4754833
